Catalogue of molecules with associated Quantum yield
# condition.context: pH 7.0 aqueous solution; standard fluorescein in 0.1 N NaOH, φs=0.90
experimental.readout: Quantum yield

[[record]]
molecule = "CN(C)c1ccc2c(-c3cc(C(=O)NCCCCCC(=O)NCC#Cc4c[nH]c(=O)c([C@@H]5O[C@H](COP(=O)(O)OP(=O)(O)OP(=O)(O)O)[C@@H](O)[C@H]5O)c4)ccc3C(=O)[O-])c3ccc(N(C)C)cc3[o+]c2c1 [TAMRA-yTP]"
experimental_readout = "Quantum yield"
readout_number = 0.50

[[record]]
molecule = "O=C(CCCCCNC(=O)c1ccc2c(c1)C(=O)OC21c2ccc(O)cc2Oc2cc(O)ccc21)NCC#Cc1c[nH]c(=O)c([C@@H]2O[C@H](COP(=O)(O)OP(=O)(O)OP(=O)(O)O)[C@@H](O)[C@H]2O)c1 [FAM-yTP]"
experimental_readout = "Quantum yield"
readout_number = 0.55

[[record]]
molecule = "O=C(NCC#Cc1c[nH]c(=O)c([C@@H]2O[C@H](COP(=O)(O)OP(=O)(O)OP(=O)(O)O)[C@@H](O)[C@H]2O)c1)c1ccc2c(c1)C(=O)OC21c2ccc(O)cc2Oc2cc(O)ccc21 [short FAM-yTP]"
experimental_readout = "Quantum yield"
readout_number = 0.67

[[record]]
molecule = "CN(C)c1cccc2c(S(=O)(=O)NCCCCCC(=O)NCCCCCC(=O)NCC#Cc3c[nH]c(=O)c([C@@H]4O[C@H](COP(=O)(O)OP(=O)(O)OP(=O)(O)O)[C@@H](O)[C@H]4O)c3)cccc12 [Dansyl-x-yTP]"
experimental_readout = "Quantum yield"
readout_number = 0.014

